TEST_SYSTEM: T1, Nat1 (LTIITLE) (also: TFA salt)
T1 peptide: LTIITLE
PROTOCOL_DESCRIPTION: cell-based or functional assay
Non-standard residues stand in square brackets, D forms with d. No end group written: not given here. NMeI = CC[C@H](C)[C@H](NC)C(=O)O
REPORTED_PROPERTY: IC50, Thiofiavin T aggregation assay (nM)

Consider the reported IC50, Thiofiavin T aggregation assay for these binders:
> print(dat)
    binder                     reported.property  numeric.result
1  LYIFRHT  IC50, Thiofiavin T aggregation assay             363
2  TRIYRYK  IC50, Thiofiavin T aggregation assay             213
3  YRLRYVR  IC50, Thiofiavin T aggregation assay             175

P = LYIRLTH
Q = IWIRRWR
R = LR[NMeI]KYHR [LR(N-Me)IKYHR]
S = TRIYRVK
T = IRIRRAR
Task field, ranking: reported IC50, Thiofiavin T aggregation assay, descending order. List each label, following the requested order.
S, Q, R, P, T
